Test system: T lymphocytes (normal mouse spleen cells) stimulated with ConA
Test: Mouse Spleen Cell ConA Blastogenesis Assay
Type: cell-based, mouse (C57Bl/6)
Settings: Mus musculus, T-lymphocyte, ConA 4 ug/ml; compound 25 ug/ml; read-out: % change from control, ConA blastogenic response
Measurement Name: inhibition at 25 µg/mL (%)
Value expressed in %; do not type the unit.

Here are 10 molecules together with their reported answers.
[[record]]
molecule = "CCCCC/C=C\\COC[C@H]1O[C@](COC/C=C\\CCCCC)(OC)[C@@H](O)[C@@H]1O [Ig]"
measurement_name = "inhibition at 25 µg/mL"
unit_string = "%"
result_number = 77

[[record]]
molecule = "CCCCCCCO[C@@H]1[C@@H](CO)O[C@@]2(CO)OC(C)(C)O[C@@H]12 [Ik]"
measurement_name = "inhibition at 25 µg/mL"
unit_string = "%"
result_number = 99

[[record]]
molecule = "CCCCC/C=C\\COC[C@H]1O[C@@]2(OC)COC(C)(C)O[C@H]2[C@@H]1OC/C=C\\CCCCC [If]"
measurement_name = "inhibition at 25 µg/mL"
unit_string = "%"
result_number = 87

[[record]]
molecule = "CCCCCCCC(=O)O[C@@H]1[C@@H](CO)O[C@@]2(OC)COC(C)(C)O[C@@H]12 [Ih]"
measurement_name = "inhibition at 25 µg/mL"
unit_string = "%"
result_number = 14

[[record]]
molecule = "CN1CCCC1CCNC[C@H]1OC(C)(C)O[C@@H]2[C@H]3OC(C)(C)O[C@H]3O[C@@H]21 (stereo partly shown) [IIIi]"
measurement_name = "inhibition at 25 µg/mL"
unit_string = "%"
result_number = 50

[[record]]
molecule = "CCCCCCCSC[C@H]1OC(C)(C)O[C@@H]2[C@H]3OC(C)(C)O[C@H]3O[C@@H]21 [IIIn]"
measurement_name = "inhibition at 25 µg/mL"
unit_string = "%"
result_number = 16

[[record]]
molecule = "CCCCC/C=C/COC[C@H]1O[C@@]2(OC)COC(C)(C)O[C@H]2[C@@H]1OC/C=C/CCCCC [Ie]"
measurement_name = "inhibition at 25 µg/mL"
unit_string = "%"
result_number = 99

[[record]]
molecule = "CCCCCCCC(=O)OC[C@H]1O[C@@]2(OC)COC(C)(C)O[C@H]2[C@@H]1O [Ii]"
measurement_name = "inhibition at 25 µg/mL"
unit_string = "%"
result_number = -7

[[record]]
molecule = "CCCCCCCCCCCCOC1C(C(O)CO)OC2OC(C)(C)OC21 (stereo not shown) [IIa]"
measurement_name = "inhibition at 25 µg/mL"
unit_string = "%"
result_number = 94

[[record]]
molecule = "CCCCCCCO[C@@H]1[C@@H](CO)O[C@@]2(OC)COC(C)(C)O[C@@H]12 [Ic]"
measurement_name = "inhibition at 25 µg/mL"
unit_string = "%"
result_number = 99


Query: Bench note: what inhibition at 25 µg/mL did CC1(C)OC2OC(C(O)COCCCc3ccccc3)C(O)C2O1 (stereo not shown) [IIIe] show?
Reply: 99

Query: Also check CCCCCC#CCOC[C@H]1O[C@@]2(OC)COC(C)(C)O[C@H]2[C@@H]1OCC#CCCCCC [Id]
Reply: 100

Query: Also check CC1(C)OCC(C2OC3OC(C)(C)OC3C2NCCCO)O1 (stereo not shown) [IIk]
Reply: 5

---

Tested on: T lymphocytes (normal mouse spleen cells) stimulated with ConA
Assay: Mouse Spleen Cell ConA Blastogenesis Assay
Type: cell-based, mouse (C57Bl/6)
Conditions: Mus musculus, T-lymphocyte, ConA 1 ug/ml; compound 25 ug/ml; read-out: % change from control, ConA blastogenic response
Please enter Criterion met where inhibition at 25 µg/mL is greater than or equal to 80%, and Criterion not met where it is lower.

Look over these answered cases.
[[record]]
compound = "CCCCCCCOC[C@H]1O[C@@]2(OC)COC(C)(C)O[C@H]2[C@@H]1O"
group_label = "Criterion met"

[[record]]
compound = "CCCCCC#CCOC[C@H]1O[C@@]2(OC)COC(C)(C)O[C@H]2[C@@H]1OCC#CCCCCC"
group_label = "Criterion met"

[[record]]
compound = "CCCCCCCSC[C@H]1OC(C)(C)O[C@@H]2[C@H]3OC(C)(C)O[C@H]3O[C@@H]21"
group_label = "Criterion not met"


Query: Record CCCCCCCO[C@@H]1[C@@H](CO)O[C@@]2(CO)OC(C)(C)O[C@@H]12 ; criterion: inhibition at 25 µg/mL no lower than 80%. Met?
Reply: Criterion met

Query: Also check CC1(C)OC2OC(C(O)COCCCc3ccccc3)C(O)C2O1 (stereo not shown)
Reply: Criterion met

Query: Also check CCCCCCCC(=O)OC[C@H]1O[C@@]2(OC)COC(C)(C)O[C@H]2[C@@H]1O
Reply: Criterion not met

---

Tested on: T cell proliferation in mouse spleen cell mixed lymphocyte cultures
Experiment: Mixed Lymphocyte Reaction (MLR) assay
Assay type: cell-based, mouse (Balb/c responder, C57B1/6 stimulator)
Details: 3 um
Please enter True where Mean O.D. Allogenic is greater than or equal to 0.3 O.D., and False where it is lower.

Look over these answered cases.
[[record]]
compound = "CCCCCCCO[C@@H]1[C@@H](CO)O[C@@]2(OC)COC(C)(C)O[C@@H]12 [Ic]"
group_label = "False"

[[record]]
compound = "CCCCC/C=C/COC[C@H]1O[C@@]2(OC)COC(C)(C)O[C@H]2[C@@H]1OC/C=C/CCCCC [Ie]"
group_label = "True"

[[record]]
compound = "CCCCCCCCCCCCCCCOCC(O)C1OC2OC(C)(C)OC2C1O (stereo not drawn) [IIId]"
group_label = "False"

[[record]]
compound = "CN1CCCC1CCNC[C@H]1OC(C)(C)O[C@@H]2[C@H]3OC(C)(C)O[C@H]3O[C@@H]21 (stereo partly drawn) [IIIi]"
group_label = "False"

[[record]]
compound = "CCCCC/C=C\\COC[C@H]1O[C@@]2(OC)COC(C)(C)O[C@H]2[C@@H]1OC/C=C\\CCCCC [If]"
group_label = "False"

[[record]]
compound = "CCCCCCCOC[C@H]1O[C@](COCC)(OC)[C@@H](OCC)[C@@H]1O [Ib]"
group_label = "True"


Query: Record CCCCCCCOC[C@H]1O[C@@]2(OC)COC(C)(C)O[C@H]2[C@@H]1O [Ia] ; criterion: Mean O.D. Allogenic no lower than 0.3 O.D.. Met?
Reply: True

Query: Also check CC1(C)OC2OC(C(O)COCCCc3ccccc3)C(O)C2O1 (stereo not drawn) [IIIe]
Reply: False

Query: Also check CCCCC/C=C\COC[C@H]1O[C@](COC/C=C\CCCCC)(OC)[C@@H](O)[C@@H]1O [Ig]
Reply: True

---

Tested on: Interleukin 1 (IL-1) production by peritoneal macrophages
Experiment: IL-1 Assay: production of interleukin-1 by peritoneal macrophages (thymocyte bioassay)
Type: cell-based, mouse (C57B1/6)
Conditions: 10 ug/ml
Measurement Name: ^3 H-Thymidine uptake by thymocytes

Here are 3 compounds together with their reported answers.
[[record]]
compound = "CCCCC/C=C/COC[C@H]1O[C@@]2(OC)COC(C)(C)O[C@H]2[C@@H]1OC/C=C/CCCCC [Ie]"
measurement_name = "^3 H-Thymidine uptake by thymocytes"
result = "6,100 ± 775 cpm"

[[record]]
compound = "CCCCCC#CCOC[C@H]1O[C@@]2(OC)COC(C)(C)O[C@H]2[C@@H]1OCC#CCCCCC [Id]"
measurement_name = "^3 H-Thymidine uptake by thymocytes"
result = "3,050 ± 191 cpm"

[[record]]
compound = "CCCCCCCOC[C@H]1O[C@@]2(OC)COC(C)(C)O[C@H]2[C@@H]1O [Ia]"
measurement_name = "^3 H-Thymidine uptake by thymocytes"
result = "4,970 ± 410 cpm"


Query: Fill in the recorded ^3 H-Thymidine uptake by thymocytes for this compound, with Interleukin 1 (IL-1) production by peritoneal macrophages as test system: CC1(C)OC2OC(C(O)COCCCc3ccccc3)C(O)C2O1 (stereo not drawn) [IIIe]
Reply: 2,586 ± 553 cpm

Query: Also check CCCCCCCOCCCO[C@@H]1[C@H]2OC(C)(C)O[C@H]2O[C@@H]1[C@H](O)CO [IIg]
Reply: 4,854 ± 471 cpm

Query: Also check CN1CCCC1CCNC[C@H]1OC(C)(C)O[C@@H]2[C@H]3OC(C)(C)O[C@H]3O[C@@H]21 (stereo partly drawn) [IIIi]
Reply: 5,169 ± 870 cpm

---

Test system: T cell proliferation in mouse spleen cell mixed lymphocyte cultures
Assay: Mixed Lymphocyte Reaction (MLR) assay
Type: cell-based, mouse (Balb/c responder, C57B1/6 stimulator)
Conditions: 100 um
Measurement Name: Mean O.D. Allogenic (O.D.)
Value expressed in O.D.; do not type the unit.

Query: Bench note: what Mean O.D. Allogenic did CCCCC/C=C/COC[C@H]1O[C@@]2(OC)COC(C)(C)O[C@H]2[C@@H]1OC/C=C/CCCCC show?
Reply: 0.216

Query: Also check CCCCCCCOC[C@H]1O[C@](COCC)(OC)[C@@H](OCC)[C@@H]1O
Reply: 0.353

Query: Also check CCCCCCCCCCCCCCCOCC(O)C1OC2OC(C)(C)OC2C1O (stereo not drawn)
Reply: 0.021
